experiment: kanamycin survival loss of SKKanGAS strain – BacTiter-Glo luminescence, streptokinase expression inhibitor project, primary screen (AID 1662);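 note: strain carries kanamycin resistance gene driven by streptokinase promoter and grows in 40 µg/ml kanamycin; loss of luminescence reflects streptokinase promoter inhibition or plain growth inhibition; 0% = median of DMSO wells and 100% = positive control at its reference dose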; conditions: S. pyogenes SKKanGAS, kanamycin growth, 6 h, at 7.5 µM, stronger effect = higher value
In all, about 300,000 compounds went through this assay and about 4,000 (1.3%) were called active. Shown is part of a subset that was picked to be rich in actives.
measurement-label: inhibition (%)
Please respond with the number in % and leave the unit unwritten.

Which measured inhibition value corresponds to CCOC(=O)N1CCN(S(=O)(=O)c2ccc(OC)cc2)CC1 ?
-0.833

Which measured inhibition value corresponds to CCC(NC(=O)C1CCCC1)c1ccc(C)cc1 (stereo not given) ?
5.2

Which measured inhibition value corresponds to COc1cc2c(cc1OC)C(c1cccc([N+](=O)[O-])c1)=NCC2 ?
-3.25

Which measured inhibition value corresponds to COc1ccc(-c2n[nH]c(C)c2-c2ccccc2OC)c(O)c1 ?
1.39

Which measured inhibition value corresponds to CCNc1nc(NC(C)C)nc(N2CC(=O)N(CC(=O)OCC)C2=N)n1 ?
0.266

Which measured inhibition value corresponds to CCOCCCNC(=O)c1ccc(CS(=O)(=O)c2cccc(C(F)(F)F)c2)o1 ?
-1.72

Which measured inhibition value corresponds to COc1ccc(C2CC(c3cccs3)=NN2c2ccccc2)cc1 (stereo not given) ?
11.6

Which measured inhibition value corresponds to CCC(=O)N1CCN(c2ccccc2NC(=O)COc2cccc(C)c2C)CC1 ?
5.73

Which measured inhibition value corresponds to Cc1ccc(C)c(NC(=S)NNC(=O)c2csc(C)c2)c1 ?
-5.04

Which measured inhibition value corresponds to O=c1c([N+](=O)[O-])cccn1Cc1ccc(F)cc1Cl ?
55.4

Which measured inhibition value corresponds to COc1ccc(Cl)cc1N(CC(=O)N1CCCCC1)S(C)(=O)=O ?
-8.05

Which measured inhibition value corresponds to O=[N+]([O-])c1c(NCCO)cc(Sc2nc3ccccc3s2)c2nonc12 ?
51.8

Which measured inhibition value corresponds to C/C(=N\NC(=O)c1cccc([N+](=O)[O-])c1)c1cccnc1 ?
-2.34

Which measured inhibition value corresponds to Cc1ccc(C)c(C(C)NC(=O)C2CCCO2)c1 (stereo not given) ?
1.89

Which measured inhibition value corresponds to CCOC(=O)c1ccccc1NS(=O)(=O)c1c(C)nc2sccn2c1=O ?
-2.29

Which measured inhibition value corresponds to O=C(N/N=C/c1ccc(O)cc1)/C(=C/c1ccc([N+](=O)[O-])cc1)NC(=O)c1ccccc1 ?
-0.983

Which measured inhibition value corresponds to COc1ccccc1-c1n[nH]c2c1[C@H](C)CC[C@H]2C(C)C ?
91.1

Which measured inhibition value corresponds to CCOC(=O)NNc1cc(C(F)(F)F)ccn1 ?
0.731

Which measured inhibition value corresponds to CC(=O)N/C(=N/c1nc(C)cc(C)n1)Nc1ccc(F)cc1F ?
-6.21

---

assay: kanamycin survival loss of SKKanGAS strain – BacTiter-Glo luminescence, streptokinase expression inhibitor project, primary screen (AID 1662); settings: S. pyogenes SKKanGAS, kanamycin growth, 6 h, at 7.5 µM
Among all 300,000 compounds or so, about 4,000 (1.3%) were called active.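 How the source made its calls: active means mean replicate score, as percent of positive control median, at least 50; inconclusive means mean below 50 but one replicate at or above 50; inactive means mean and every replicate below 50.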 This is one part of a sample in which actives are shown more often than they occur.
Your reply should match one of these outcome classes. yes (1) for active, no (0) for inactive

Examples from the recorded data:
COc1cccc(/C=N/Nc2cc(C)nc(-c3ccccc3O)n2)c1O = yes (1)
COc1ccc(CC(=O)NCC(=O)N/N=C/c2cc(Br)ccc2OC)cc1 = no (0)

What outcome does the record of this test show for COc1ccc(/C=N/Nc2cc(N3CCOCC3)nc(C)n2)c(OC)c1 ?
no (0)

What outcome does the record of this test show for CCN(CC)S(=O)(=O)c1ccc(N(C)Cc2ccc(C(F)(F)F)cc2)nc1 ?
no (0)

---

experiment: kanamycin survival loss of SKKanGAS strain – BacTiter-Glo luminescence, streptokinase expression inhibitor project, primary screen (AID 1662);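 note: strain carries kanamycin resistance gene driven by streptokinase promoter and grows in 40 µg/ml kanamycin; loss of luminescence reflects streptokinase promoter inhibition or plain growth inhibition; 0% = median of DMSO wells and 100% = positive control at its reference dose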; details: S. pyogenes SKKanGAS, kanamycin growth, 6 h, at 7.5 µM, stronger effect = higher value
Hit rate of the full screen: of about 300,000 compounds, about 4,000 (1.3%) were called active. The list comes from a sample in which actives are over-represented; it also holds close analogues and randomly drawn compounds.
measurement-label: inhibition (%)
Please respond with the number in % and leave the unit unwritten.

CCOc1cc(NC(=O)CCl)c(OCC)cc1NC(C)=O = -2.78
O=c1[nH]c(CSc2ccccc2)nc2c1oc1ccccc12 = -3.16
CC(C)(C)NC(=O)CN(C(=O)c1ccc(Cl)nc1)c1cccc2ccccc12 = -17.5
O=C(CCc1ccccc1)NNC(=O)COc1ccc(Cl)cc1 = 5.54
O=S(=O)(NC1CCCCC1N1CCCCC1)c1ccc(Cl)cc1 (stereo unspecified) = 1.78

Which measured inhibition value corresponds to O=c1[nH]oc(O)c1-c1ncc(C(F)(F)F)cc1Cl ?
-8.5

Which measured inhibition value corresponds to O=C(CCN1C(=O)[C@@H]2Cc3ccccc3CN2C1=O)NCc1ccccc1 ?
-1.78

Which measured inhibition value corresponds to O=C(NCCc1ccccn1)c1cc(-c2ccc(Cl)cc2)nc2ccccc12 ?
1.78

Which measured inhibition value corresponds to COc1cccc(NC(=O)CSc2nnc(Cc3ccc(OC)c(OC)c3)o2)c1 ?
-5.07

Which measured inhibition value corresponds to O=C(C1CCCO1)N(c1ccc(F)cc1)C1C=CS(=O)(=O)C1 (stereo unspecified) ?
-0.303

Which measured inhibition value corresponds to C[C@@H]1CC[C@]2(O[C@@H](CCO)C[C@H](O)[C@H]2O)O1 ?
-1.49

---

experiment: kanamycin survival loss of SKKanGAS strain – BacTiter-Glo luminescence, streptokinase expression inhibitor project, primary screen (AID 1662);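 note: strain carries kanamycin resistance gene driven by streptokinase promoter and grows in 40 µg/ml kanamycin; loss of luminescence reflects streptokinase promoter inhibition or plain growth inhibition; 0% = median of DMSO wells and 100% = positive control at its reference dose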; conditions: S. pyogenes SKKanGAS, kanamycin growth, 6 h, at 7.5 µM, stronger effect = higher value
The campaign covered roughly 300,000 compounds. About 4,000 (1.3%) were called active. The full list was thinned out, with actives kept by preference.
measurement-label: inhibition (%)
Please respond with the number in % and leave the unit unwritten.

// solved cases for inhibition follow
O=c1c(-c2ccccc2)coc2cc(O)ccc12 = 0.922
COCCN(C(=O)COC(=O)Cc1cccc(OC)c1)c1c(N)n(Cc2ccccc2)c(=O)[nH]c1=O = -1.12
CSCc1nnc(NC(=O)c2ccc(S(=O)(=O)N3CCCCC3C)cc2)o1 (stereo not given) = 39.4
CCN(CC(=O)Nc1cc(Cl)ccc1C)C(=O)CN1C(=O)NC2(CCCC2)C1=O = 9.28
CC1CCCN(S(=O)(=O)c2ccc(C(=O)Nc3nnc(-c4ccncc4)o3)cc2)C1 (stereo not given) = 20.4

Which measured inhibition value corresponds to CC(C)=CCc1c(O)c(CC=C(C)C)c2occ(-c3ccc(O)cc3)c(=O)c2c1O ?
105

Which measured inhibition value corresponds to CC(C)C(=O)Nc1ccc2c3c(cccc13)CC2 ?
-4.74

Which measured inhibition value corresponds to COc1ccccc1NC(=O)c1cc(N2C(=O)C3C4CCC(C4)C3C2=O)ccc1Cl (stereo not given) ?
-15.7

Which measured inhibition value corresponds to Cc1cc(C(=O)OCC(=O)NCc2ccco2)c(C)n1-c1ccccc1 ?
2.24

Which measured inhibition value corresponds to COc1ccc(NC(=O)CS(=O)(=O)c2ccccc2)cc1 ?
-4.25

---

test: kanamycin survival loss of SKKanGAS strain – BacTiter-Glo luminescence, streptokinase expression inhibitor project, primary screen (AID 1662);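 note: strain carries kanamycin resistance gene driven by streptokinase promoter and grows in 40 µg/ml kanamycin; loss of luminescence reflects streptokinase promoter inhibition or plain growth inhibition; 0% = median of DMSO wells and 100% = positive control at its reference dose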; conditions: S. pyogenes SKKanGAS, kanamycin growth, 6 h, at 7.5 µM
About 4,000 (1.3%) of roughly 300,000 compounds were called active.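 The calls were made as follows: active = mean replicate score, as percent of positive control median, at least 50; inconclusive = mean below 50 but one replicate at or above 50; inactive = mean and every replicate below 50.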 The sample as a whole holds a higher share of actives than the screen did.
Your reply should match one of these outcome classes. active, inactive

Examples from the recorded data:
CN(c1ccccc1)S(=O)(=O)c1cc(C(=O)Nc2nc3ccccc3[nH]2)ccc1Cl = active
CCN1CCN(C(c2cccnc2)c2cc(Cl)c3cccnc3c2O)CC1 (configuration not stated) = inactive
CCOC(=O)C1=C(C)Nc2sc(C(=O)c3ccc(Br)cc3)c(N)c2C1c1ccc(C(=O)OC)cc1 (configuration not stated) = inactive
COc1ccccc1Oc1nc(-c2cccnc2)nc2ccccc12 = inactive
COc1ccc2c(c1)CC[C@@H]1[C@@H]2CC[C@]2(C)C(=O)CC[C@@H]12 = inactive

What outcome does the record of this test show for CCN(CC)S(=O)(=O)c1ccc(N2CCOCC2)c(NC(=O)C2COc3ccccc3O2)c1 (configuration not stated) ?
inactive

What outcome does the record of this test show for O=C(CCn1c(=O)[nH]c2ccccc2c1=O)NCCCN1CCN(c2cccc(Cl)c2)CC1 ?
inactive

What outcome does the record of this test show for CCOC(=O)CC(NC(=O)C1c2ccccc2Oc2ccccc21)c1ccc(C)cc1 (configuration not stated) ?
inactive

What outcome does the record of this test show for Cc1ccccc1NC(=S)NNC(=O)c1cccc(Br)c1 ?
inactive

What outcome does the record of this test show for CC1Cc2ccccc2N1S(=O)(=O)c1ccc(Cl)nc1 (configuration not stated) ?
inactive

What outcome does the record of this test show for CC(C)(C)c1ccc(C(=O)NCCn2c(N)c(C#N)c3nc4ccccc4nc32)cc1 ?
inactive
